Biological target: B1 bradykinin receptor (Homo sapiens)
Sequence (P46663 whole entry): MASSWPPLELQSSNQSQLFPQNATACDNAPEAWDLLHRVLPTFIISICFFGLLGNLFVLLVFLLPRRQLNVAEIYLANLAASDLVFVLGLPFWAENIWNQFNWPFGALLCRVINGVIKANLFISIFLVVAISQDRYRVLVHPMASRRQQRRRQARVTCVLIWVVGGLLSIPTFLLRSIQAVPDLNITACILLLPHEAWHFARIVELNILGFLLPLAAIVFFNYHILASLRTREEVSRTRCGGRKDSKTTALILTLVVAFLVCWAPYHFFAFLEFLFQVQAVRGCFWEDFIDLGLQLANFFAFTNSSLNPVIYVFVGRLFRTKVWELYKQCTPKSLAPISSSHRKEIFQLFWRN
Experiment: Antagonist activity at human bradykinin B1 receptor expressed in clone CHO-D-/aequorin cells by aquerin based assay
Type: functional, cell-based
ASSAY ENDPOINT: IC50 (nM)

Past entries and their recorded results:
MOLECULE	TEST TARGET	MEASURE UNIT	RECORDED RESULT
O=C(C[C@@H](O)CS(=O)(=O)c1ccc2ccccc2c1)N[C@@H]1CCCc2cc(CN3CCCCC3)ccc21	B1 bradykinin receptor (Homo sapiens)	nM	107
CC(C)(C)c1ccc(S(=O)(=O)C[C@@H](O)[C@@H](O)C(=O)N[C@@H]2CCCc3cc(CN4CCCCC4)ccc32)cc1	B1 bradykinin receptor (Homo sapiens)	nM	4.5
O=C(C[C@H](O)CS(=O)(=O)c1ccc2ccccc2c1)N[C@@H]1CCCc2cc(CN3CCCCC3)ccc21	B1 bradykinin receptor (Homo sapiens)	nM	48.9
O=C(CC(CS(=O)(=O)c1ccc2ccccc2c1)c1ccccc1)N[C@@H]1CCCc2cc(CN3CCCCC3)ccc21 (stereo partly drawn)	B1 bradykinin receptor (Homo sapiens)	nM	13.7
O=C(N[C@@H]1CCCc2cc(CN3CCCCC3)ccc21)[C@H](O)CCS(=O)(=O)c1ccc2ccccc2c1	B1 bradykinin receptor (Homo sapiens)	nM	50.6

(1) O=C(N[C@@H]1CCCc2cc(CN3CCCCC3)ccc21)[C@@H](O)CCS(=O)(=O)c1ccc2ccccc2c1
(2) O=C(N[C@@H]1CCCc2cc(CN3CCCCC3)ccc21)[C@H](O)[C@H](O)CS(=O)(=O)c1ccc(C(F)(F)F)cc1
(3) O=C(N[C@@H]1CCCc2cc(CN3CCCCC3)ccc21)[C@H](O)[C@H](O)CS(=O)(=O)c1ccc(Cl)c(Cl)c1
Task: hey, can you rank those molecules up there by IC50? biggest number first please Please list each label once, in the requested order.
Output: 2, 1, 3
(2: 44.9 nM, 1: 30.8 nM, 3: 17.1 nM)
